Consider the following molecules and their measured pest or weed control at 15.625 g/ha readings.
# Tested on: giant foxtail (Setaria faberi)
# assay-protocol: Test G Post-Emergence Protocol
# Type: in vivo
# measurement-setup: Setaria faberi, post-emergence, 312 h, 15.625 g ai/ha, evaluated after 13 days (100=total damage to plant; 0=no damage to plant), read-out: Foxtail, Giant damage rating
Unit % implied. Number only.

Please indicate pest or weed control at 15.625 g/ha recorded for CN1C[C@@H](c2ccc(C(F)(F)F)nc2)[C@H](C(=O)Nc2ccccc2F)C1=O (racemic)
10

Provide only the value of recorded pest or weed control at 15.625 g/ha for CN1C[C@H](c2cccc(C(C)(C)C#N)c2)[C@@H](C(=O)Nc2ccccc2F)C1=O (racemic)
0

Let me know recorded pest or weed control at 15.625 g/ha for Cc1nnc(NC(=O)[C@@H]2C(=O)N(C)C[C@H]2c2ccc(C(F)(F)F)cc2)nc1C (racemic) , thanks.
0

Give the reported pest or weed control at 15.625 g/ha for this molecule. COC(=O)c1sccc1NC(=O)[C@@H]1C(=O)N(C)C[C@H]1c1ccc(C(F)(F)F)cc1 (racemic)
10

Look up and state reported pest or weed control at 15.625 g/ha for CN1C[C@@H](c2ccc(C(F)(F)F)cc2)[C@H](C(=O)Nc2nccs2)C1=O (racemic)
0

Complete the entry with pest or weed control at 15.625 g/ha for CC(C)c1cc([C@H]2CN(C)C(=O)[C@@H]2C(=O)Nc2cccc(F)c2F)cnn1 (racemic)
0

Read the entry CN1C[C@@H](c2ccc(C(F)(F)F)cc2)[C@H](C(=O)Nc2cccc(Cl)n2)C1=O (racemic) and write its reported pest or weed control at 15.625 g/ha.
40

###

# Lookup of reported Plant response rating, Foxtail, Giant keyed by entry
# Tested on: giant foxtail (Setaria faberii)
# assay-protocol: Test A preemergence
# Assay type: in vivo
# measurement-setup: 500 g ai/ha, preemergence; 0 to 100 scale, 0 = no effect, 100 = complete control
Reply: number alone, nothing else.

Answered examples (7):
O=C1NCC(c2cccc(OC(F)(F)C(F)F)c2)C1C(=O)Nc1ccc(F)c(F)c1F (racemic) [Compound 698] :: 90
O=C1NCC(c2ccc(I)cc2)C1C(=O)Nc1cccc(F)c1F (racemic) [Compound 700] :: 90
C=CCOc1cccc(C2CNC(=O)C2(CC=C)C(=O)Nc2cccc(F)c2F)c1 (centres unmarked) [Compound 631] :: 0
CN1CC(c2cccc(C(F)(F)F)c2)C(C(=O)Nc2ccccc2C(F)(F)F)C1=O (centres unmarked) [Compound 638] :: 100
Cc1cc(C2CNC(=O)C2C(=O)Nc2cccc(F)c2F)cs1 (racemic) [Compound 656] :: 90
CN1CC(c2ccc(C(C)(F)F)cc2)C(C(=O)Nc2cccc(F)c2F)C1=O (centres unmarked) [Compound 690] :: 90
CN1CC(c2cccc(F)c2)C(C(=O)Nc2cccc(F)c2F)C1=O (centres unmarked) [Compound 632] :: 90

Kindly consider the entry below.
For giant foxtail (Setaria faberii), give Plant response rating, Foxtail, Giant of the listed molecule: CN1CC(c2ccc(F)c(F)c2)C(C(=O)Nc2ccccc2C(F)(F)F)C1=O (centres unmarked) [Compound 641]
100

###

# Tested on: pigweed (Amaranthus retroflexus)
# assay-protocol: Test A postemergence
# Assay type: in vivo
# measurement-setup: Amaranthus retroflexus, post-emergence, 240 h, Postemergence, 125 g ai/ha; visual injury after approx. 10 d; 0 to 100 scale, 0 no effect, 100 complete control; read-out: Plant response rating, Pigweed
measured-quantity: pest or weed control at 125 g/ha (%)
Unit % implied. Number only.

Past entries and their recorded results:
CN1C[C@H](c2ccc(C(F)(F)F)cc2)[C@@H](C(=O)Nc2cccc(F)n2)C1=O [Compound 1400] :: 60
O=C1NC[C@H](c2cncc(C(F)(F)F)c2)[C@H]1C(=O)Nc1cccc(F)c1F [Compound 1394] :: 0
CSc1ccccc1NC(=O)[C@H]1C(=O)N(C)C[C@@H]1c1ccc(C(F)(F)F)cc1 [Compound 1391] :: 70

Switching to the query record.
Provide the reported pest or weed control at 125 g/ha (system: pigweed (Amaranthus retroflexus)) for CN1C[C@H](c2cccc(C(F)(F)F)c2)[C@@H](C(=O)Nc2cccnc2F)C1=O [Compound 1397]
0

###

# Tested on: ragweed (common ragweed, Ambrosia elatior)
# assay-protocol: Test A preemergence
# Assay type: in vivo
# measurement-setup: Ambrosia artemisiifolia, pre-emergence, 240 h, 500 g ai/ha, preemergence; 0 to 100 scale, 0 = no effect, 100 = complete control; read-out: Plant response rating, Ragweed
measured-quantity: pest or weed control at 500 g/ha

# annotated cases, reported pest or weed control at 500 g/ha shown
CN1C[C@H](c2ccc(C(F)(F)F)cc2)[C@@H](C(=O)Nc2cccc(F)c2F)C1=O :: 80%
CN1C[C@H](c2cccc(C(F)(F)F)c2)[C@@H](C(=O)Nc2ccccc2C2CC2)C1=O :: 0%
CCc1cc(CC)cc([C@H]2CN(C)C(=O)[C@@H]2C(=O)Nc2ccccc2F)c1 :: 0%

Using the record for CN1C[C@H](c2nccs2)[C@@H](C(=O)Nc2ccccc2F)C1=O , state its measured pest or weed control at 500 g/ha.
0%

For the compound COc1cc([C@H]2CN(C)C(=O)[C@@H]2C(=O)Nc2ccccc2SC)ccc1C(F)(F)F , give its measured pest or weed control at 500 g/ha value.
70%

###

Reported pest or weed control at 15.625 g/ha values follow for various compounds
# System: giant foxtail (Setaria faberi)
# assay-protocol: Test G Post-Emergence Protocol
# Type: in vivo
# measurement-setup: Setaria faberi, post-emergence, 312 h, 15.625 g ai/ha, evaluated after 13 days (100=total damage to plant; 0=no damage to plant), read-out: Foxtail, Giant damage rating
Form entry: enter the amount, then its unit.

CN1C[C@@H](c2ccc(CF)cc2)[C@H](C(=O)Nc2cccc(F)c2F)C1=O (racemic) [Compound 1822] :: 70%
CN1C[C@@H](c2ccc(C(F)(F)F)cc2)[C@H](C(=O)Nc2ccc(F)c(Cl)c2F)C1=O (racemic) [Compound 1628] :: 70%
Cc1ccc([C@H]2CN(C)C(=O)[C@@H]2C(=O)Nc2cccc3c2S(=O)(=O)CC3)cc1 (racemic) [Compound 1739] :: 0%
Cc1cc([C@H]2CN(C)C(=O)[C@@H]2C(=O)Nc2ccccc2S(C)(=O)=O)cc(C(F)(F)F)c1 (racemic) [Compound 1795] :: 60%

Hello, please tell me recorded pest or weed control at 15.625 g/ha for this one: COCCOc1cc([C@@H]2CN(C)C(=O)[C@H]2C(=O)Nc2cccc(F)c2C)ccc1C (racemic) [Compound 1790]
70%

Provide pest or weed control at 15.625 g/ha value for the following compound: Cc1cc(NC(=O)[C@@H]2C(=O)N(C)C[C@H]2c2ccc(C(F)(F)F)cc2)n[nH]1 (racemic) [Compound 1532]
0%

Given CN1C[C@@H](c2ccc(C(F)(F)F)cc2)[C@H](C(=O)Nc2ccnc(Cl)n2)C1=O (racemic) [Compound 1544] , respond with its pest or weed control at 15.625 g/ha.
0%

Supply pest or weed control at 15.625 g/ha value. Item: CN1C[C@H](c2ccc(C(F)(F)F)cc2)[C@@H](C(=O)Nc2cnccc2[S+](C)[O-])C1=O (mixture of isomers) [Compound 1751]
0%

Return reported pest or weed control at 15.625 g/ha. Input compound: CN1C[C@@H](c2ccc(C(F)(F)F)cc2)[C@H](C(=O)Nc2cn[nH]c2)C1=O (racemic) [Compound 1646]
0%

For CN1C[C@@H](c2ccc(NS(C)(=O)=O)cc2)[C@H](C(=O)Nc2ccccc2F)C1=O (racemic) [Compound 1416] , write its pest or weed control at 15.625 g/ha.
0%

Return pest or weed control at 15.625 g/ha for the following compound: CN1C[C@@H](c2ccc(C(F)(F)F)cc2)[C@H](C(=O)Nc2nnnn2C)C1=O (racemic) [Compound 1618]
0%

###

# System: barnyardgrass (Echinochloa crus-galli)
# assay-protocol: Test A postemergence
# Type: in vivo
# measurement-setup: Echinochloa crus-galli, post-emergence, 240 h, Postemergence, 500 g ai/ha; visual injury, 0 to 100 scale (0 no effect, 100 complete control), approx. 10 d; read-out: Plant response rating, Barnyardgrass
Below, each of the molecules is paired with its reported pest or weed control at 500 g/ha value.
Please state the value followed by its unit.

Indicate its recorded pest or weed control at 500 g/ha; the molecule in question is O=C1NC[C@H](c2cc(C(F)(F)F)ccn2)[C@H]1C(=O)Nc1cccc(F)c1F (racemic)
90%

###

Measured pest or weed control at 500 g/ha by item
# Tested on: blackgrass (Alopecurus myosuroides)
# assay-protocol: Test A postemergence
# Assay type: in vivo
# measurement-setup: Alopecurus myosuroides, post-emergence, 240 h, 500 g ai/ha, postemergence; visual injury, 0 to 100 scale (0 no effect, 100 complete control), approx. 10 d; read-out: Plant response rating, Blackgrass
Quick note: give the figure in %, leave out the unit.

Cc1ccc([C@H]2CN(C)C(=O)[C@@H]2C(=O)Nc2cccc(F)c2F)cc1C :: 40
Cc1ccc([C@H]2CNC(=O)[C@@H]2C(=O)Nc2ccccc2S(C)(=O)=O)cc1C :: 20
CN1CC[C@H](c2ccc(OC(F)(F)F)cc2)[C@@H](C(=O)Nc2ccc(F)c(F)c2F)C1=O :: 0

Field: next molecule
Provide pest or weed control at 500 g/ha value for the following molecule: CC(C)COc1cccc([C@H]2CN(C)C(=O)[C@@H]2C(=O)Nc2cccc(F)c2F)c1
40
